- Test system: HT-29
- Test description: Cytotoxicity against human HT-29 cells at 5 uM after 24 hrs by MTT assay
- Assay type: functional
The source made the active and inactive calls. The calls are words filed in the database; no cut-off is given here.
Outcomes: active, inactive

Molecule	Assayed target	Class label
CC(C)=CC[C@H]1C[C@@]23C[C@@H](CC=C(C)C)C(C)(C)[C@@](CC=C(C)C)(C(=O)C(C(=O)c4ccc(O)c(O)c4)=C2OC1(C)C)C3=O [CAMBOGIN]	HT-29	active
CC(C)=CCC/C(C)=C/C[C@@H]1C[C@]2(CC=C(C)C)C(=O)[C@@](CC=C(C)C)(C(=O)C(C(=O)c3ccc(O)c(O)c3)=C2O)C1(C)C [OBLONGIFOLIN B]	HT-29	active
CC(C)=CCC/C(C)=C/C[C@H]1C[C@]2(C/C=C(\C)CCC=C(C)C)C(=O)[C@@](CC=C(C)C)(C(=O)C(C(=O)c3ccc(O)c(O)c3)=C2O)C1(C)C [OBLONGIFOLIN D]	HT-29	inactive
CC(C)=CCC/C(C)=C/C[C@@H]1C[C@@]2(C/C=C(\C)CCC=C(C)C)C(=O)[C@](CC=C(C)C)(C(=O)C(C(=O)c3ccc(O)c(O)c3)=C2O)C1(C)C [GUTTIFERONE B]	HT-29	active
